Where do the numbers come from? From ChEMBL document CHEMBL5042533.

# System: BaF3
# protocol.details: cells
# run.conditions: Mus musculus, BaF3, 72 h
# Description: Cytotoxicity against mouse BaF3 cells expressing LMNA fused TrkA G667S mutant assessed as inhibition of cell growth incubated for 3 days by CCK-8 assay
readout.kind: IC50 (nM)

* Cc1ccc(-n2nc(C(C)(C)C)cc2NC(=O)Nc2ccc(Nc3ncnc4c3OC(C)(C)C(=O)N4)c(C)c2)cc1 | 4
* O=C(Nc1cnn2ccc(N3CCC[C@@H]3c3cc(F)ccc3F)nc12)N1CC[C@H](O)C1 | 321
* Cc1cc(NC(=O)Nc2cc(C(C)(C)C)nn2-c2ccc(Cl)cc2)ccc1Nc1ncnc2c1OC(C)(C)C(=O)N2 | 6
* Cc1cc(NC(=O)Nc2cc(C(C)(C)C)nn2-c2ccc(F)c(F)c2)ccc1Nc1ncnc2c1OC(C)(C)C(=O)N2 | 14
* C[C@@H]1CCc2ncc(F)cc2[C@H]2CCCN2c2ccn3ncc(c3n2)C(=O)N1 | 30

P = Cc1cc(NC(=O)Nc2cc(C(C)(C)C)nn2-c2ccccc2)ccc1Nc1ncnc2c1OC(C)(C)C(=O)N2
Q = Cc1cc(NC(=O)Nc2cc(C(C)(C)C)nn2-c2ccc(C(F)(F)F)cc2)ccc1Nc1ncnc2c1OC(C)(C)C(=O)N2
Sort P and Q by IC50 descending and give the first. Refer to your chosen item by its label in the answer. P

====

# protocol.details: Clearance in Sprague-Dawley rat at 10 mg/kg, po measured up to 24 hrs by HPLC method
# Format: ADME, organism-based
# run.conditions: in vivo
readout.kind: CL/F (L/h/kg)
Please reply with the bare figure in L/h/kg and do not write the unit itself.

Tell me measured CL/F for Cc1cc(NC(=O)Nc2cc(C(C)(C)C)nn2-c2ccc(Cl)cc2)ccc1Nc1ncnc2c1OC(C)(C)C(=O)N2 please. 0.707

====

# protocol.details: Tmax in Sprague-Dawley rat at 5 mg/kg, iv measured up to 24 hrs by HPLC method
# Format: ADME, organism-based
# run.conditions: in vivo
readout.kind: Tmax (min)
Kindly answer with a numeric value in min, unit omitted.

Item Cc1cc(NC(=O)Nc2cc(C(C)(C)C)nn2-c2ccc(Cl)cc2)ccc1Nc1ncnc2c1OC(C)(C)C(=O)N2 : provide Tmax 4.8

====

# protocol.details: MRT (0 to t) in Sprague-Dawley rat at 10 mg/kg, po measured up to 24 hrs by HPLC method
# Type: ADME, organism-based
# run.conditions: in vivo
readout.kind: MRT last at 24 h (h)
Express it in h; write the number only.

Read the entry Cc1cc(NC(=O)Nc2cc(C(C)(C)C)nn2-c2ccc(Cl)cc2)ccc1Nc1ncnc2c1OC(C)(C)C(=O)N2 and write its reported MRT last at 24 h. 2.94

====

# protocol.details: AUC(0 to t) in Sprague-Dawley rat at 10 mg/kg, po measured up to 24 hrs by HPLC method
# Format: ADME, organism-based
# Set-up: route oral, dose 10 mg/kg, time <=24
# run.conditions: in vivo
readout.kind: AUC(0-t) at 24 h (ng·h/mL)
Response body: numeric value in ng·h/mL, unit text excluded.

Respond only with AUC(0-t) at 24 h recorded for Cc1cc(NC(=O)Nc2cc(C(C)(C)C)nn2-c2ccc(Cl)cc2)ccc1Nc1ncnc2c1OC(C)(C)C(=O)N2 7080

====

// IC50 collected for BDNF/NT-3 growth factors receptor (Homo sapiens, UniProt Q16620)

Example entries begin here.
• Cc1ccc(NC(=O)Nc2ccc(Nc3ncnc4c3OC(C)(C)C(=O)N4)cc2)cc1 = > 10 µM
• C=CCNC(=O)Nc1ccc(Nc2ncnc3c2OC(C)(C)C(=O)N3)cc1 = > 10 µM

Continue with the next compound.
Note IC50 for the compound shown: Cn1nc(C(C)(C)C)cc1NC(=O)Nc1ccc(Nc2ncnc3c2OC(C)(C)C(=O)N3)cc1 > 10 µM

====

pIC50: recorded values
# System: BaF3
# protocol.details: Cytotoxicity against mouse BaF3 cells expressing LMNA fused TrkA F589L mutant assessed as inhibition of cell growth incubated for 3 days by CCK-8 assay
# Assay type: functional, cell-based
# run.conditions: BaF3, 72 h
pIC50 field: float, defined as -log10 of concentration (mol/L).

Worked cases, answers included:
- C[C@@H]1CCc2ncc(F)cc2[C@H]2CCCN2c2ccn3ncc(c3n2)C(=O)N1 [SELITRECTINIB]: 7.77
- Cc1cc(NC(=O)Nc2cc(C(C)(C)C)nn2-c2ccc(C(F)(F)F)cc2)ccc1Nc1ncnc2c1OC(C)(C)C(=O)N2: 7.89

Determine its reported pIC50: Cc1cc(NC(=O)Nc2cc(C(C)(C)C)nn2-c2ccc(Cl)cc2)ccc1Nc1ncnc2c1OC(C)(C)C(=O)N2 8.15

Output pIC50 of Cc1cc(NC(=O)Nc2cc(C(C)(C)C)nn2-c2ccc(F)c(F)c2)ccc1Nc1ncnc2c1OC(C)(C)C(=O)N2 8.00

====

# protocol.details: cells
# run.conditions: Homo sapiens, KM12-Luc, 72 h
# Description: Cytotoxicity against human KM12-Luc cells expressing TPM3 fused TrkA assessed as inhibition of cell growth incubated for 3 days by CCK-8 assay
pIC50: −log10 of the molar value.
readout.kind: pIC50

- Cc1cc(NC(=O)Nc2cc(C(C)(C)C)nn2-c2ccc(C(F)(F)F)cc2)ccc1Nc1ncnc2c1OC(C)(C)C(=O)N2: 7.89

I = O=C(Nc1cnn2ccc(N3CCC[C@@H]3c3cc(F)ccc3F)nc12)N1CC[C@H](O)C1
II = C[C@@H]1CCc2ncc(F)cc2[C@H]2CCCN2c2ccn3ncc(c3n2)C(=O)N1
Between I and II , which one has the lower reported pIC50 value? Reply with the label of the item you choose. I

====

Entries below carry reported pIC50 on High affinity nerve growth factor receptor (Homo sapiens, UniProt P04629).
Sequence (P04629 whole entry): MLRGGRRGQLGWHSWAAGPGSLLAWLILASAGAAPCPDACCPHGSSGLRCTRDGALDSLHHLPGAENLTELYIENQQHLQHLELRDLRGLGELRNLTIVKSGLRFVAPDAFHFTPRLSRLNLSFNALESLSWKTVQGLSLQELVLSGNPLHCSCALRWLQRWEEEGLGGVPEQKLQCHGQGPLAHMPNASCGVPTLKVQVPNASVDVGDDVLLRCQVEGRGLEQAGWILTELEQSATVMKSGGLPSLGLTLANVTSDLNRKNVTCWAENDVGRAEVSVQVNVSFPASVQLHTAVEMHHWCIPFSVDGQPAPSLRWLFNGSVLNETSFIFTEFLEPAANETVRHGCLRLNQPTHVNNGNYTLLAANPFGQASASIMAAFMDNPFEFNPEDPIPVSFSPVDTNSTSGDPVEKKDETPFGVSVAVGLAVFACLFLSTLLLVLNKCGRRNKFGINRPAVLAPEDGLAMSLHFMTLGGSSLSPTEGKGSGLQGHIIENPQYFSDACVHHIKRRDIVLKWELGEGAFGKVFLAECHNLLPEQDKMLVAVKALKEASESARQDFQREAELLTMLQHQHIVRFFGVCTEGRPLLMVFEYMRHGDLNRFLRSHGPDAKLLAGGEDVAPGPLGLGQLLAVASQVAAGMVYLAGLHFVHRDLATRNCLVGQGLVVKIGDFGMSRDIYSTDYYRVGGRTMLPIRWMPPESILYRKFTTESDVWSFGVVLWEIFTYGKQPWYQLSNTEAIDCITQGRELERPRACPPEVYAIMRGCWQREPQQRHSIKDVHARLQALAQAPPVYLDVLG
pIC50: −log10 of the molar value.
readout.kind: pIC50

Some molecules with known pIC50 results, for comparison:
• Cc1cc(NC(=O)Nc2cc(C(C)(C)C)nn2-c2ccc(F)c(F)c2)ccc1Nc1ncnc2c1OC(C)(C)C(=O)N2 = 8.05
• COc1cc(Nc2ncnc3c2OC(C)(C)C(=O)N3)ccc1NC(=O)Nc1cc(C(C)(C)C)nn1-c1ccccc1 = 7.42

I = CC1(C)Oc2c(ncnc2Nc2ccc(NC(=O)Nc3ccc(Cl)c(C(F)(F)F)c3)cc2)NC1=O
II = Cc1cc(NC(=O)Nc2cc(C(C)(C)C)nn2-c2cccnc2)ccc1Nc1ncnc2c1OC(C)(C)C(=O)N2
# returns the entry with the larger pIC50; inputs I and II Answer = label. II
